// provenance: paper PMC12040169

In this section we review reported viability at 28.5 h, 10 µM values for a set of compounds.
# PROTOCOL NOTES: in vitro
# SETUP CONDITIONS: human, hela cells, % viability
Enter your answer as a number in %; do not include the unit.

These solved cases illustrate the format of a correct answer.
c1cncc(CN2CCCN(c3nccc(OCC4COc5ccccc5O4)n3)CC2)c1 (stereo not drawn)	112
O=C1CN(C(=O)NCc2ccc(F)cc2)CCN1	88.2
COc1cccc(CNc2nccnc2-c2ccc(S(C)(=O)=O)cc2)c1OC	104

Give recorded viability at 28.5 h, 10 µM. `NC(=O)CSc1nnc(NC(=O)c2ccccc2Cl)s1`
89.9

Consider the compound CS(=O)(=O)N1CCCC(C(=O)Nc2ccc(S(N)(=O)=O)cc2)C1 (stereo not drawn) . State its measured viability at 28.5 h, 10 µM.
83

For the compound `CC(C)(C)c1ccc(/C=C/C(=O)n2cccn2)cc1` , report viability at 28.5 h, 10 µM.
85.7

Name the recorded viability at 28.5 h, 10 µM of the compound listed here: `Cn1c(N2CC[C@H](O)C2)nc2cc(C(=O)NCc3ccsc3)ccc21`
87.5

* * *

# PROTOCOL NOTES: in vitro
# SETUP CONDITIONS: human, hela cells, % viability
# Lookup of reported viability at 28.5 h, 10 µM keyed by entry
# number only, unit % dropped from output

Here's what some known entries look like.
CCCN1CCC(CNC(=O)c2cc3c(OC)cccc3n2C)CC1	90.1
COCC(=O)N1CCN2C(=O)N(Cc3ccccc3)C(=O)[C@H]2C1	91.4
N#Cc1ccc(NC(=O)Nc2ccccc2)cc1	87.8
Cc1csc2c(N3CCCC3CC(O)c3cnn(C)c3)ncnc12 (stereo not drawn)	91.9
O=C(CSc1nnc(-c2ccccc2)[nH]1)c1cccc([N+](=O)[O-])c1	91

Now take the following molecule into account.
Give a short answer stating reported viability at 28.5 h, 10 µM for `O=C(c1cc[nH]n1)N1CCOCC1` .
89.2

* * *

# PROTOCOL NOTES: in vitro
# SETUP CONDITIONS: human, hela cells, % viability
Below, each entry is listed alongside its reported viability at 28.5 h, 10 µM.

Cc1ccc(Sc2ncccc2C(=O)Nc2ccnn2Cc2cccnc2)cc1C [CBK296980]	109%
COc1cncc(-c2cnc(N)c(N3CCOCC3)n2)c1 [CBK063360]	96.7%

Now consider the entry below.
Please give the documented viability at 28.5 h, 10 µM of COc1ccc(S(=O)(=O)N2CCC3(CC2)CC(=O)c2ccc(C)cc2O3)cc1OC [CBK166515]
96.8%

* * *

# PROTOCOL NOTES: in vitro
# SETUP CONDITIONS: human, hela cells, % viability
READOUT LABEL: viability at 28.5 h, 10 µM (%)
Your answer should be a plain number; it is taken to be in %.

O=C(O)/C=C/C(=O)N(Cc1ccccn1)Cc1ccco1	84.2
CCOc1ccc(-n2c(SCc3ccc(Br)cc3)nnc2-c2ccncc2)cc1	103
CS(=O)(=O)Nc1cc(-c2noc([C@@H]3CCCN3Cc3ccc(S(C)(=O)=O)cc3)n2)ccn1	90.7
CC(C)(C)OC(=O)N1CCN(c2nccnc2Cl)CC1	102
Cc1c(C(=O)NCCN2CCCC(C(N)=O)C2)[nH]c2c(F)cccc12 (stereo not shown)	81.7

Item `Cc1ccc(S(=O)(=O)c2cccc(S(N)(=O)=O)c2)cc1S(N)(=O)=O` : provide viability at 28.5 h, 10 µM
91.7

Answer with the recorded viability at 28.5 h, 10 µM of `CCOC(=O)N1CCC(NC(=O)N2CCN(c3cc(C(F)(F)F)ccn3)CC2)CC1` only.
103
